- system.under.test: TLR8 (Homo sapiens, UniProt Q9NR97)
- Sequence (Q9NR97 27-1041): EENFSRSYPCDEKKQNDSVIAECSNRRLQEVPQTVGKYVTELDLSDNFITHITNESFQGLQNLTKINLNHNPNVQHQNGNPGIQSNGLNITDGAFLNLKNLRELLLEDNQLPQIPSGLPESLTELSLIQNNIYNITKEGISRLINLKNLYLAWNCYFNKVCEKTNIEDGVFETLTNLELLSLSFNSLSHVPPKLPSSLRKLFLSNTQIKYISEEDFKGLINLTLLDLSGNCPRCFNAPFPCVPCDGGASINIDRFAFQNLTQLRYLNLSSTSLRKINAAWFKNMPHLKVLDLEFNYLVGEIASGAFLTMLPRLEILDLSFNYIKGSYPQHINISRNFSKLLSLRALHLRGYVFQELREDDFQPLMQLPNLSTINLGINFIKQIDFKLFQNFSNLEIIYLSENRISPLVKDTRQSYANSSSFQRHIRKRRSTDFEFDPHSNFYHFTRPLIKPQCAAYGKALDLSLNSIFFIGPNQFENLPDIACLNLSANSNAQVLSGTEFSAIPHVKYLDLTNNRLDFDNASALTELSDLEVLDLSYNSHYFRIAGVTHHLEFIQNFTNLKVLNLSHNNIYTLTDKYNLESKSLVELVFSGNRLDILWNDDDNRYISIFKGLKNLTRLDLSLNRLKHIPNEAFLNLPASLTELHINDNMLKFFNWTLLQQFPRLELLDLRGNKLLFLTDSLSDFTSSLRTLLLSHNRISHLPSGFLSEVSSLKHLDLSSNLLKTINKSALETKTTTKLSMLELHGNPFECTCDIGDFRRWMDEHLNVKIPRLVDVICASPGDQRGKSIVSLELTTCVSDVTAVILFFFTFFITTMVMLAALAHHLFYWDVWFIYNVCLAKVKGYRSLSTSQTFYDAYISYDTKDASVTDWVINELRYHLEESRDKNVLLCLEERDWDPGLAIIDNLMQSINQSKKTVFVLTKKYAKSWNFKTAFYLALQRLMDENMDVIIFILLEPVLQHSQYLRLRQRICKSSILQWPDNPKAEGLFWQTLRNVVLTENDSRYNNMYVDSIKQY
- protocol.description: HEK/293 TLR8 Cell Assay
- condition.info: HEK cells, R848 agonist 30 uM final concentration, Steady-Glo readout; read-out: TLR8 potency
pIC50: −log10 of the molar value.
measured.quantity: pIC50

These recorded examples may help you get a feel for the data.
INSERT INTO results (compound, measured_quantity, experimental_value) VALUES
  ('Cc1ccc(N2C[C@@H](NC(=O)CC3CCN(C(C)C)CC3)CC(F)(F)C2)c2cccnc12 [Example 111]', 'pIC50', '< 6.82'),
  ('C[C@@H]1CN(c2ccc(C#N)c3nccnc23)C[C@H](C(=O)NC[C@H](O)CO)O1 [Example 234]', 'pIC50', '6.82 to 7.12');

The recorded pIC50 for C[C@H]1C[C@@H](NC(=O)CC2(F)CCN(C)CC2)CN(c2ccc(C#N)c3nccnc23)C1 [Example 192] is > 7.12

The recorded pIC50 for CN(C)CCNC(=O)N[C@@H]1C[C@H](C(F)(F)F)CN(c2ccc(C#N)c3nccnc23)C1 [Example 139] is 6.82 to 7.12
